# pIC50 per record follows
target: Arachidonate 5-lipoxygenase (Cavia porcellus); experiment: In vitro 5-lipoxygenase inhibition in guinea pig PMNs was determined based on 5-hydroxyeicosapentaenoic acid (5-HETE) production
The meaning of pIC50 here: minus log10 of the concentration in molar units.

Previously resolved entries follow.
CNC(=O)N(O)CC1=Cc2cc(Oc3ccc(F)cc3)ccc2OCC1 = 7.00
NC(=O)N(O)CC1=Cc2cc(Oc3ccc(F)cc3)ccc2OCC1 = 7.04
NC(=O)N(O)CC1=Cc2ccc(Oc3ccccc3)cc2OCC1 = 6.74
NC(=O)N(O)CC1=Cc2cc(Oc3ccccc3)ccc2OCC1 = 7.05

Read the next record carefully.
Provide pIC50 value for the following compound: NC(=O)N(O)CC1=Cc2cc(Oc3ccccc3)ccc2SCC1
6.92
